Where a name gives a salt, the structure may show the parent alone.
TAFIa (Homo sapiens) data, read-out pIC50
Sequence (Q96IY4 115-423): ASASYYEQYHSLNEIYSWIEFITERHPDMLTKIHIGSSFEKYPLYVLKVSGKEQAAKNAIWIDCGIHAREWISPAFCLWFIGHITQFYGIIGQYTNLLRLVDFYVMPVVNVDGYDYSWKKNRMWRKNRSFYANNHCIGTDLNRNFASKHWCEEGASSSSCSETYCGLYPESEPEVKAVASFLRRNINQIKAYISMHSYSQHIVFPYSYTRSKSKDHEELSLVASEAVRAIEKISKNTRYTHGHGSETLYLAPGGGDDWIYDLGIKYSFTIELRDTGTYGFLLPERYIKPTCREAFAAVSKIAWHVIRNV
In simple prose, pIC50 is minus the logarithm base ten of a concentration in moles per litre.

Solved cases (3 shown):
{"columns": ["compound", "pIC50"],
 "data": [
  ["NCCCC(Cc1ncn2c1CCc1cc(C(F)(F)F)ccc1-2)C(=O)O (stereo not shown) [Example 27, dihydrochloride]", 6.39],
  ["Nc1cc(C(Cc2ncn3c2CCc2ccccc2-3)C(=O)O)ccn1 (stereo not shown) [Example 22, dihydrochloride]", 5.29],
  ["Cc1ccc2c(c1)CCc1c(CC(CCCN)C(=O)O)ncn1-2 (stereo not shown) [Example 11, dihydrochloride]", 7.21]
]}

Ask: Respond only with pIC50 recorded for CCCc1ccc2c(c1)CCc1c(CC(CCCN)C(=O)O)ncn1-2 (stereo not shown) [Example 17, dihydrochloride]
Result: 7.17
